Below, each of the compounds is paired with its reported inhibition in vivo at 30 mg/kg value.
- Tested on: food intake of rats
- protocol: Antifeeding activity: food intake after intracerebroventricular infusion of NPYY5 agonist
- Assay type: in vivo
- appliedConditions: Rattus norvegicus, compound 30 mg/kg oral, 0.1 nmol NPYY5 agonist infused one hour later, food intake 4 h after infusion vs control group, read-out: Antifeeding activity (%) 4 h
Put down the number, then write its unit next to it.

See these solved cases before continuing.
CCn1c2ccccc2c2cc(NC(=O)CCCCNS(=O)(=O)CC)ccc21 [Id-2] :: 100%
CCn1c2ccccc2c2cc(NC(=O)[C@H]3CC[C@H](NS(=O)(=O)CC)CC3)ccc21 [Id-1] :: 49%
CN(C)S(=O)(=O)N[C@H]1CC[C@H](C(=O)Nc2ccc(C(F)(F)F)cc2)CC1 [Ii-1] :: 31%
CCn1c2ccccc2c2cc(NC(=O)CCNS(=O)(=O)CC(F)(F)F)ccc21 [Ig-1] :: 48%
CCS(=O)(=O)NCCCCC(=O)Nc1ccc(OCC(F)(F)F)nc1 [Ia-3] :: 74%
CCS(=O)(=O)N[C@H]1CC[C@H](C(=O)Nc2ccc(OCC(F)(F)F)nc2)CC1 [Ia-2] :: 56%
CCS(=O)(=O)N[C@H]1CC[C@H](C(=O)Nc2ccc(N3C[C@@H](C)O[C@@H](C)C3)cc2)CC1 [Ib-1] :: 92%

In the following, a different compound is considered.
Which value of inhibition in vivo at 30 mg/kg has been reported for CCS(=O)(=O)NCCCCC(=O)Nc1ccc2c(c1)c1c(n2C(C)C)CCCC1 [Id-4] in the records?
95%

---

- Tested on: food intake of rats
- protocol: Antifeeding activity: food intake after intracerebroventricular infusion of NPYY5 agonist
- Assay type: in vivo
- appliedConditions: Rattus norvegicus, compound 30 mg/kg oral, 0.1 nmol NPYY5 agonist infused one hour later, food intake 1 h after infusion vs control group, read-out: Antifeeding activity (%) 1 h
property: inhibition in vivo at 30 mg/kg
Put down the number, then write its unit next to it.

Which value of inhibition in vivo at 30 mg/kg has been reported for CCS(=O)(=O)NCCCCC(=O)Nc1ccc(OCC(F)(F)F)nc1 [Ia-3] in the records?
85%

---

- System: food intake of rats
- protocol: Antifeeding activity: food intake after intracerebroventricular infusion of NPYY5 agonist
- Assay type: in vivo
- appliedConditions: Rattus norvegicus, compound 30 mg/kg oral, 0.1 nmol NPYY5 agonist infused one hour later, food intake 1 h after infusion vs control group, read-out: Antifeeding activity (%) 1 h
property: inhibition in vivo at 30 mg/kg (%)
Kindly provide the numeric value in % only, without the unit symbol.

See these solved cases before continuing.
CCn1c2ccccc2c2cc(NC(=O)CCCCNS(=O)(=O)CC)ccc21 [Id-2] :: 100
CCS(=O)(=O)N[C@H]1CC[C@H](C(=O)Nc2ccc(OCC(F)(F)F)nc2)CC1 [Ia-2] :: 98
CN(C)S(=O)(=O)N[C@H]1CC[C@H](C(=O)Nc2ccc(C(F)(F)F)cc2)CC1 [Ii-1] :: 42
CCn1c2ccccc2c2cc(NC(=O)[C@H]3CC[C@H](NS(=O)(=O)CC)CC3)ccc21 [Id-1] :: 5
CCn1c2ccccc2c2cc(NC(=O)CCNS(=O)(=O)CC(F)(F)F)ccc21 [Ig-1] :: 67
CCS(=O)(=O)NCCCCC(=O)Nc1ccc2c(c1)c1c(n2C(C)C)CCCC1 [Id-4] :: 100

In the following, a different molecule is considered.
Which value of inhibition in vivo at 30 mg/kg has been reported for CCS(=O)(=O)N[C@H]1CC[C@H](C(=O)Nc2ccc(N3C[C@@H](C)O[C@@H](C)C3)cc2)CC1 [Ib-1] in the records?
90

// provenance: patent US7534892B2
